- Tested on: PAF lethality in mice
- method-notes: PAF induced anaphylactic shock test in mice (PAF lethality)
- Assay type: in vivo
- experimental-setup: Mus musculus, ip, 1 h; male NMRI mice, intraperitoneal, 30 minutes before intravenous PAF 100 μg/kg, mortality at one hour; read-out: PAF lethality in mice ID50
Listed below: ED50 values for each entry.

compound	target-of-assay	units-symbol	ED50
Cc1c(C)c2c(c(C)c1O)[C@H]1CCC=C[C@H]1O2 (relative stereo)	PAF lethality in mice	mg/kg	23.2
Cc1c(C)c2c(c(C)c1O)[C@@H]1CC=C[C@@H]1O2 (relative stereo)	PAF lethality in mice	mg/kg	51.7
CCOc1cc2c(cc1O)[C@@H]1CC=C[C@@H]1O2 (relative stereo)	PAF lethality in mice	mg/kg	27.3
CCOc1cc2c(cc1O)[C@@H]1CCC[C@@H]1O2 (relative stereo)	PAF lethality in mice	mg/kg	45
